Target: Aminopeptidase N (Plasmodium falciparum (isolate 3D7))
Test: malaria alanyl aminopeptidase activity blockers – biochemical, fluorogenic H-Leu-NHMec substrate, 1536-well (AID 1445);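 further: plate controls were DMSO full reaction for no effect and no enzyme background for full effect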
Details: recombinant M1AAP, H-Leu-NHMec fluorogenic kinetic assay; at 30 µM, hits give high values unless noted
In all, about 220,000 compounds went through this assay and about 910 (0.41%) were called active. The sample holds actives, similar compounds and a random draw of the others, so the mix is not that of the screen. Measured potencies and affinities stand elsewhere.
Reported Metric: inhibition (%)
Enter your answer as a number in %; do not include the unit.

COc1ccc(C2/C=C\CN(Cc3ccco3)CC(=O)N2Cc2ccc(F)cc2)cc1 (stereo unspecified) : 4.94
COC(=O)n1c(=O)oc2ccccc21 : 6.55
CSc1cc(-c2ccc(Cl)cc2)[nH]c(=O)c1C#N : 0.84

Request: Endpoint output: inhibition of O=c1cc(-c2ccccc2Cl)oc2c(NS(=O)(=O)c3ccccc3OC(F)(F)F)ccc(O)c12 . Value?
Response: 3.26

Request: Consider the compound shown here: CCOC(=O)N1CCC(NC(=O)c2ccc3c(c2)sc2nc(-c4ccccc4)cn23)CC1 What is its recorded inhibition?
Response: 31.7

Request: Look at this compound and give its reported inhibition. CC(C)COc1ccc(/C=C2/Sc3ccccc3C2=O)cc1
Response: -0.23

* * *

Target: Aminopeptidase N (Plasmodium falciparum (isolate 3D7)) (UniProt O96935)
Sequence (O96935 whole entry, looked up): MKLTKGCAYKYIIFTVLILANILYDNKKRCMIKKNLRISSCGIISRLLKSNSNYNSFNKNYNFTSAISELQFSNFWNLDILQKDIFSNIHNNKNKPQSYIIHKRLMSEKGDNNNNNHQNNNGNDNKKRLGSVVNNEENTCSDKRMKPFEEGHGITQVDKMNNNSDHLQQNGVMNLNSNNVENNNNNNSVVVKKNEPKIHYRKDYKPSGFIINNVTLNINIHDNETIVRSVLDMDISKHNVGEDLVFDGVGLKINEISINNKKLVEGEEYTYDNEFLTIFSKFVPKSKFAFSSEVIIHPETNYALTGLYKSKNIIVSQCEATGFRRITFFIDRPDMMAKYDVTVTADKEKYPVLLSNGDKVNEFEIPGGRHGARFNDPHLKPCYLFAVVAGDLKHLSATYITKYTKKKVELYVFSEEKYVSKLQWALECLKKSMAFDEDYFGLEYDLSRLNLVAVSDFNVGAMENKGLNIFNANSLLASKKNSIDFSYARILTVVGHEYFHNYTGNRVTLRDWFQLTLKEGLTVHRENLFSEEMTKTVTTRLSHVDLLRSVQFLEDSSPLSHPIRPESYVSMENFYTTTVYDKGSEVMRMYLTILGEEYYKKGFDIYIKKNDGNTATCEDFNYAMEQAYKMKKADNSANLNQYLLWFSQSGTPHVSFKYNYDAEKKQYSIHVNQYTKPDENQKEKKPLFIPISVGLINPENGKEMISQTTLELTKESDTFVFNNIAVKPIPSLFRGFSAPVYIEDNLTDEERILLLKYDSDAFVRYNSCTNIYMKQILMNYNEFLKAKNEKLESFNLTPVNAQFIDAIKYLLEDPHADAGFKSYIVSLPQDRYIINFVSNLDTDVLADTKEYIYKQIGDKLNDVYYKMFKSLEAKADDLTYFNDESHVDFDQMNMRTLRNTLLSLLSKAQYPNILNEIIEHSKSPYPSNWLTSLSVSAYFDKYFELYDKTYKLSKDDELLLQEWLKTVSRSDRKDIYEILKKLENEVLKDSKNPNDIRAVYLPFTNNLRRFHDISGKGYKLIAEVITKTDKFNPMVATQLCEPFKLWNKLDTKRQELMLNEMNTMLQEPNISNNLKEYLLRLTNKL
Assay: malaria alanyl aminopeptidase activity blockers – biochemical, fluorogenic H-Leu-NHMec substrate, 1536-well (AID 1445)
Conditions: recombinant M1AAP, H-Leu-NHMec fluorogenic kinetic assay; at 30 µM, hits give high values unless noted
Screen size: about 220,000 compounds; about 910 (0.41%) were called active. This excerpt belongs to a sample that is enriched for actives. Entries with a potency or affinity are not part of this list.
# inhibition per entry
Quick reminder: number only, in %, skip the unit.

Worked cases, answers included:
CCOc1ccc(Br)cc1S(=O)(=O)Nc1ccc(NC(=O)c2ccccc2C)cc1 : 7.33
CCOC(=O)C1=C(O)/C(=C/c2ccc(-c3ccccc3C(=O)O)o2)SC1=Nc1ccc(OC)cc1 : 26.2
CC(C)Nc1nc(NNc2nc(Cl)nc(NC(C)(C)C)n2)nc(NC(C)C)n1 : -3.65
Cc1cc(NC(=O)c2ccco2)ncc1NC(=O)Cc1ccccc1 : 0.67
COc1ccc(N(CC(=O)Nc2ccccc2C(=O)NCc2ccco2)S(C)(=O)=O)cc1 : 3.79
COc1ccccc1CNC(=O)CN1CCC(NC(=O)c2ccccc2F)CC1 : 8.21
O=C(CN1CCC(NC(=O)c2ccc(F)cc2)CC1)NCc1ccccc1F : 31.9
C=CCNC(=S)Nc1ccc(C(N)=O)cc1 : 4.91
Cc1cc(=O)oc2cc(Oc3ccc(C(N)=O)cc3[N+](=O)[O-])ccc12 : 30
O=C(O)Cc1cc(C(=O)Nc2ccc(Br)cc2)sc1-c1ccccc1 : 8.41

Request: GET /values?readout=inhibition&item= CCOC(=O)NNS(=O)(=O)c1cc(Br)ccc1Br
Response: -1.42

Request: So what's the measured inhibition for this one? CC(=O)Cc1nsc(NC(=O)c2ccc(COc3ccccc3)o2)n1
Response: 26.3

Request: Endpoint output: inhibition of CCOC(=O)N1CCN(c2c(N3CCN(c4ccccc4F)CC3)c(=O)c2=O)CC1 . Value?
Response: 3.17

Request: Can you share its inhibition? I mean this molecule: O=C(CCc1nnc(Cc2c[nH]c3ccccc23)o1)NC(C1CC1)C1CC1
Response: 1.78

Request: For CC(=O)Cc1nsc(NC(=O)c2ccc(COc3ccc(C)cc3)o2)n1 , what is its reported inhibition?
Response: 8.72

Request: Given the molecule O=C(CN1CCC(NC(=O)c2ccc(Br)cc2)CC1)NCc1cccs1 , what is its reported inhibition?
Response: 17.5

* * *

Biological target: Aminopeptidase N (Plasmodium falciparum (isolate 3D7)) (UniProt O96935)
Assay: malaria alanyl aminopeptidase activity blockers – biochemical, fluorogenic H-Leu-NHMec substrate, 1536-well (AID 1445)
Details: recombinant M1AAP, H-Leu-NHMec fluorogenic kinetic assay; at 30 µM, hits give high values unless noted
About 910 (0.41%) of roughly 220,000 compounds were called active. Shown is part of a subset that was picked to be rich in actives. Entries with a potency or affinity are not part of this list.
Reported Metric: inhibition (%)
Just the number please, in %, no unit attached.

Example compounds with recorded inhibition:
O=C1c2oc3ccccc3c(=O)c2C(c2cccs2)N1CCCN1CCOCC1 (stereo unspecified) : 16.3
CCC1=NN2C(=N)/C(=C/c3cc(C)n(Cc4ccccc4)c3C)C(=O)N=C2S1 : 1.28

Request: Entry CCN(CC)CCCN1C(=O)c2oc3ccccc3c(=O)c2C1c1cccs1 (stereo unspecified) has what inhibition?
Response: 23.3

Request: // lookup inhibition for CCn1c(O)c(N=NC(=O)C(O)c2ccccc2)c2ccccc21 (stereo unspecified)
Response: 5.57

Request: Param item = COC(=O)c1ccc(CSc2nc3c(c(=O)n2-c2ccccc2)SCC3)o1 ; retrieve measured inhibition.
Response: 5.07

* * *

Target: Aminopeptidase N (Plasmodium falciparum (isolate 3D7)) (UniProt O96935)
Assay: malaria alanyl aminopeptidase activity blockers – biochemical, fluorogenic H-Leu-NHMec substrate, 1536-well (AID 1445);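 further: plate controls were DMSO full reaction for no effect and no enzyme background for full effect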
Conditions: recombinant M1AAP, H-Leu-NHMec fluorogenic kinetic assay; at 30 µM, hits give high values unless noted
Screen size: about 220,000 compounds; about 910 (0.41%) were called active. Many of the other results were omitted from the sample, so actives are more common in it than they were. Potency and affinity values are given separately.
Reported Metric: inhibition (%)
Reply numerically in %, unit not repeated.

NS(=O)(=O)c1ccc(CCNC(=O)COC(=O)CCc2ccccc2)cc1 : -2

Request: Endpoint output: inhibition of Cc1cc(NC(=O)CSc2nc3ccsc3c(=O)n2CCCCC(=O)O)no1 . Value?
Response: 7.32

Request: # inhibition lookup, item O=C(CCc1nc(-c2ccccc2F)no1)NCc1ccco1
Response: 8.13

Request: So what does the record say about inhibition for c1ccc(SCc2nc(-c3cccnc3)no2)cc1 ?
Response: 2.83

Request: What inhibition value was documented for this compound, Cn1c(CNC(=O)c2ccccc2)nnc1SCC(=O)Nc1nccs1 ?
Response: 0.84

Request: Reported inhibition, compound Cc1c(NC(=O)c2ccc3c(c2)C(=O)N(Cc2ccco2)C3=O)cccc1C(=O)O : ____
Response: 3.77

Request: Consider the compound shown here: CCCCn1c(SCC(=O)Nc2cc(C)on2)nc2ccsc2c1=O What is its recorded inhibition?
Response: 0.46

Request: Reported inhibition for CCCCn1c(SCC(=O)Nc2nccs2)nc2ccccc2c1=O : what is it?
Response: 1.43

Request: Record request: inhibition value, item COC(=O)c1c(N2C(=O)Nc3ccccc3N2O)sc2c1CCCC2
Response: 9.84

Request: Field request: inhibition | item: CCc1nnc(NC(=O)CN2CCN(C(=O)c3ccccc3)CC2)s1
Response: 5.2

Request: What value of measured inhibition is listed for CCN1CC(CN(C)Cc2cn(-c3cccc(C)c3)nc2-c2cccc(F)c2)CC1=O (stereo unspecified) ?
Response: 0.42

* * *

Below is a list of entries, each paired with its recorded inhibition value.
Biological target: Aminopeptidase N (Plasmodium falciparum (isolate 3D7))
Test: malaria alanyl aminopeptidase activity blockers – biochemical, fluorogenic H-Leu-NHMec substrate, 1536-well (AID 1445);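 further: plate controls were DMSO full reaction for no effect and no enzyme background for full effect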
Details: recombinant M1AAP, H-Leu-NHMec fluorogenic kinetic assay; at 30 µM, hits give high values unless noted
The whole screen tested about 220,000 compounds, of which about 910 (0.41%) were called active. The sample holds actives, similar compounds and a random draw of the others, so the mix is not that of the screen. Potency and affinity values are given separately.
Kindly answer with a numeric value in %, unit omitted.

Examples with their reported inhibition follow.
O=C(N/N=C(/CC(=O)c1cccs1)C(F)(F)F)c1ccc(O)cc1 : 30.4
Nc1ccc(C23CC4CC(CC(C4)C2)C3)cc1 : 1.15

Request: Record request: inhibition value, item CCOCc1nnc(NC(=O)c2ccc(NC(C)=O)cc2)s1
Response: 1.45

Request: What does the data say about its inhibition? Entry: Cc1cc(C)n(/N=C/c2c[nH]c3ccccc23)c(=O)c1C#N
Response: 5.27

Request: Given the compound NC(=O)CSc1nnc(-c2cccs2)n1Cc1ccco1 , what is its reported inhibition?
Response: 8.05

Request: I have this compound here, CSc1ccc(-c2nnn(CC(=O)NCc3ccccc3)n2)cc1 , and I need its recorded inhibition.
Response: -1.85

* * *

Recorded measurements of inhibition, one per entry
Molecular target: Aminopeptidase N (Plasmodium falciparum (isolate 3D7)) (UniProt O96935)
Experiment: malaria alanyl aminopeptidase activity blockers – biochemical, fluorogenic H-Leu-NHMec substrate, 1536-well (AID 1445);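 further: plate controls were DMSO full reaction for no effect and no enzyme background for full effect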
Conditions: recombinant M1AAP, H-Leu-NHMec fluorogenic kinetic assay; at 30 µM, hits give high values unless noted
Hit rate of the full screen: of about 220,000 compounds, about 910 (0.41%) were called active. The list comes from a sample in which actives are over-represented; it also holds close analogues and randomly drawn compounds. Entries with a potency or affinity are not part of this list.
Form entry: value (%) — number only.

// worked examples, inhibition included
CCC(=O)N1N=C(c2c(-c3ccccc3)c3cc(Cl)ccc3[nH]c2=O)CC1c1ccco1 (centres undefined) : 22.1
CC(NC(=S)Nc1ccc(F)cc1)C(c1cccs1)N1CCOCC1 (centres undefined) : 1.91

Request: Bench note: what inhibition did CCOC(=O)c1[nH]cnc1C(=O)Nc1ccccc1 show?
Response: 19.7

Request: Could you share which inhibition value was measured for CC(=O)Nc1ccc(S(=O)(=O)Oc2cccc(/C=C3\SC(N)=NC3=O)c2)cc1 ?
Response: -0.74

Request: Field request: inhibition | item: COc1ccc(OC)c(C2=NOC(C(=O)NCc3ccccn3)C2)c1 (centres undefined)
Response: -2.41

Request: Looking for the measured inhibition of COc1ccc(-c2cn3cccnc3n2)cc1NC(=O)c1ccc(Br)o1 , can you help?
Response: 11.3

Request: Consider the molecule CCN(Cc1ccncc1)C(=O)CCc1nnc(CCc2ccccc2OC)o1 and give its measured inhibition.
Response: -2.71

Request: Please give the measured inhibition for this molecule: COc1cc(C(=S)N2CCCC2)ccc1OS(=O)(=O)c1ccc(NC(C)=O)cc1
Response: -0.31

Request: Bench note: what inhibition did Cc1nn(-c2ccccc2)c(Cl)c1C(=O)N(C)c1nc(-c2ccc(F)cc2)cs1 show?
Response: -3.58

Request: What measured inhibition goes with Cc1ccc(C)c(Oc2coc3cc(OCC(=O)Nc4ccccc4C(C)C)ccc3c2=O)c1 ?
Response: 2.02

Request: Dear colleague, I am looking for the recorded inhibition of the following molecule: COc1cc(/C=C2\SC(c3ccc(C)cc3)=NC2=O)cc(OC)c1O
Response: 19.7

Request: Using the record for CCN(CC)Cc1oc(CO)cc(=O)c1O , report its inhibition.
Response: 5.8

Request: # inhibition lookup, item CCN(CC)Cc1c(O)c(Cl)cc2c(C)c(C)c(=O)oc12
Response: 23.6
